Tested on: CCRIS mutagenicity, Ames/micronucleus/aberration tests
Test: CCRIS mutagenicity studies
Conditions: Test System: AMES SALMONELLA TYPHIMURIUM; Strain/Indicator: TA98; Metabolic Activation: NONE; Method: STANDARD PLATE
Activity calls are given as the source filed them. The rule behind the calls is not given here.
endpoint-label: mutagenic call

Reference set, count: 5
COc1nsc2cc([N+](=O)[O-])ccc12	active; positive
Cl	inactive; negative
Oc1ccc2ccc3c4ccccc4ccc3c2c1	inactive; negative
C=CCC1=C(C)C(OC(=O)[C@@H]2[C@@H](C=C(C)C)C2(C)C)CC1=O (stereo partly drawn)	inactive; negative
O=C(/C=C/c1ccccc1)c1ccc(-c2ccccc2)cc1	inactive; negative

Give mutagenic call for each of the items listed below.
1. O=[N+]([O-])c1ccc2c(c1)Oc1ccccc1O2
2. O=[N+]([O-])c1cccc2c1[nH]c1ccccc12
3. CCC1CO1 (stereo not drawn)
4. NCCc1c[nH]c2ccc(O)cc12 (tested in a mixture with another compound)
5. O=C(CC(O)C(=O)OCCBr)OCCBr (stereo not drawn)
6. CC(=O)N(O)c1ccc2ccc3cccc4ccc1c2c34
7. c1ccc2sc(SN3CCOCC3)nc2c1
8. O=C1c2ccccc2C(=O)N1SC1CCCCC1

stdout:
active; positive
active; positive
inactive; negative
inactive; negative
inactive; negative
active; positive
inactive; negative
inactive; negative

Recorded values, source PubChem BioAssay AID1259407.
